Entry source: patent US8933228B2

tested on: ICAM-1 expression in BEAS2B cells; assay: Poly I:C-induced ICAM-1 induction in BEAS2B cells; format: cell-based; conditions: Homo sapiens, BEAS-2B; BEAS2B cells, poly I:C 1 μg/mL, 18 hr; read-out: BEAS2B (polyIC) ICAM1 IC50
pIC50: −log10 of the molar value.
Where pIC50 equals or exceeds 8, the correct label is yes (1); where it does not, the label is no (0).

# LINE NOTATION, ASSAYED TARGET, CLASS LABEL
records = [
    ("Cc1ccc(-n2nc(C(C)(C)C)cc2NC(=O)Nc2ccc(Oc3ccnc4[nH]c(=O)n(C)c34)c3ccccc23)cc1", "ICAM-1 expression in BEAS2B cells", "yes (1)"),
    ("CC(C)(C)c1cc(NC(=O)Nc2ccc(Oc3ccnc4[nH]c(=O)cnc34)c3ccccc23)n(-c2ccc(O)cc2)n1", "ICAM-1 expression in BEAS2B cells", "no (0)"),
    ("CSc1ccc(-n2nc(C(C)(C)C)cc2NC(=O)Nc2ccc(Oc3ccnc4[nH]c(=O)cnc34)c3ccccc23)cc1", "ICAM-1 expression in BEAS2B cells", "yes (1)"),
    ("COc1ccc(-n2nc(C(C)(C)C)cc2NC(=O)Nc2ccc(Oc3ccnc4[nH]c(=O)cnc34)c(Cl)c2Cl)cc1", "ICAM-1 expression in BEAS2B cells", "yes (1)"),
    ("COc1ccc(-n2nc(C(C)(C)C)cc2NC(=O)Nc2ccc(Oc3ccnc4[nH]c(=O)[nH]c34)c3ccccc23)cc1", "ICAM-1 expression in BEAS2B cells", "no (0)"),
]

Pending compound:
Hi team, for COc1ccc(-n2nc(C(C)(C)C)cc2NC(=O)Nc2ccc(Oc3ncnc4[nH]c(=O)cnc34)c3ccccc23)cc1 , is the recorded pIC50 at or above 8?
no (0)

* * *

biological target: p38 MAPK γ (MAPK12) (Homo sapiens (Human), UniProt P53778)
Sequence (P53778 whole entry): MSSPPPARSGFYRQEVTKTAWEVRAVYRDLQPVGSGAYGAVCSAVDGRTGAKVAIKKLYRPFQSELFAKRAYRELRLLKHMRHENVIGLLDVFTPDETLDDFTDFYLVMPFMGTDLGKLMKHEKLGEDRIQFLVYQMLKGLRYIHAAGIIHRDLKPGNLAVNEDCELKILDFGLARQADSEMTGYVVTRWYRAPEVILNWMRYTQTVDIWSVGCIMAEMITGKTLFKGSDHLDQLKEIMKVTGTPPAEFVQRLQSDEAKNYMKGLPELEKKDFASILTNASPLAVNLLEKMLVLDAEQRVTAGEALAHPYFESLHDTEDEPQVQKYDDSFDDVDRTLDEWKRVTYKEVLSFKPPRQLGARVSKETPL
Reported pIC50 values for the following compounds.
Friendly reminder that pIC50 comes from taking -log10 of the concentration in mol/L.

Given the compound COc1ccc(-n2nc(C(C)(C)C)cc2NC(=O)Nc2ccc(Oc3ncnc4[nH]c(=O)cnc34)c3ccccc23)cc1 , what is its reported pIC50?
5.58

Given the compound COc1ccc(-n2nc(C(C)(C)C)cc2NC(=O)Nc2ccc(Oc3ccnc4[nH]c(=O)[nH]c34)c3ncccc23)cc1 , what is its reported pIC50?
6.74

Given the compound CNS(=O)(=O)Cc1ccc(-n2nc(C(C)(C)C)cc2NC(=O)Nc2ccc(Oc3ccnc4[nH]c(=O)cnc34)c3ccccc23)cc1 , what is its reported pIC50?
7.54

Given the compound COc1ccc(-n2nc(C(C)(C)C)cc2NC(=O)Nc2ccc(Oc3ccnc4[nH]c(=O)cnc34)c(Cl)c2Cl)cc1 , what is its reported pIC50?
7.46

Given the compound CC(C)(C)c1cc(NC(=O)Nc2ccc(Oc3ccnc4[nH]c(=O)cnc34)c3ccccc23)n(-c2ccc(CO)cc2)n1 , what is its reported pIC50?
6.50

Given the compound CC(C)(C)c1cc(NC(=O)Nc2ccc(Oc3ccnc4[nH]c(=O)[nH]c34)c3ncccc23)n(-c2ccccc2)n1 , what is its reported pIC50?
6.67

Given the compound COc1cc(-n2nc(C(C)(C)C)cc2NC(=O)Nc2ccc(Oc3ccnc4[nH]c(=O)cnc34)c3ccccc23)ccc1CO , what is its reported pIC50?
7.62
